IC50 for Glucocorticoid receptor (Homo sapiens), merged from several publications.
Target: Glucocorticoid receptor (Homo sapiens)
Sequence (P04150 whole entry): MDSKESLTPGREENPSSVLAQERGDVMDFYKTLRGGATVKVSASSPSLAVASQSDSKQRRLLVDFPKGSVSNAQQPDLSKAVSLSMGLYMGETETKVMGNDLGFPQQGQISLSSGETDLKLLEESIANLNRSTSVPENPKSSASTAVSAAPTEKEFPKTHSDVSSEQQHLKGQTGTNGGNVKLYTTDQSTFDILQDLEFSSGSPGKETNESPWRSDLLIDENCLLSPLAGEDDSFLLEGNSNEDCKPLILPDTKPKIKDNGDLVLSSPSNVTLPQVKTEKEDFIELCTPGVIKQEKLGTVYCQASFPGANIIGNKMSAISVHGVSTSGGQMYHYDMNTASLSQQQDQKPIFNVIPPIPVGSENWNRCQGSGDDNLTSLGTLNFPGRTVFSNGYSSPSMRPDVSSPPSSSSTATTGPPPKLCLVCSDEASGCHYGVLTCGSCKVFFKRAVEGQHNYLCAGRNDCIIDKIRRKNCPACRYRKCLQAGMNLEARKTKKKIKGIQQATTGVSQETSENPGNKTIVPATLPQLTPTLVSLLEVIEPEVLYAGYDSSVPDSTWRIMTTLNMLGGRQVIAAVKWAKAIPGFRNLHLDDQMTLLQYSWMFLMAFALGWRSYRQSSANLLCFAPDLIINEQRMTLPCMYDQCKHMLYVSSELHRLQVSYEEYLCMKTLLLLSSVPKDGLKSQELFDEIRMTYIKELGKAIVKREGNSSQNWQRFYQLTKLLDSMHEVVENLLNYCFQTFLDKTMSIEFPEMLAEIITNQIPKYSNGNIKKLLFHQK
Quick rule for you: IC50 under 2000 nM gets y, anything else gets n.

Molecule	Discrete label
O=C1COc2ccc(C3=Nn4cnnc4SC3c3ccc(F)cc3)cc2N1 (stereo unspecified)	n
Cc1cc(F)ccc1-n1nc(C(F)(F)F)cc1-c1ccc2c(c1)NC(=O)CO2	y
CCN(CC(O)(CNc1cccc2c1cnn2-c1ccc(F)cc1)C(F)(F)F)C(=O)c1c(F)cccc1F (racemic)	y
C[C@H](c1ccc(F)cc1)N1C(=O)O[C@](Cc2ccc(F)cc2)(C(=O)NCc2ccc(Cl)c(Cl)c2)C1=O	n
CC(O)(c1ccc(F)cc1)c1ccc2c(cnn2-c2ccc(F)cc2)c1 (stereo unspecified)	n
Cc1[nH]c2ccccc2c1CC(C)NS(=O)(=O)c1c(Cl)cc(Cl)cc1Cl (stereo unspecified)	y
CSc1ccccc1/C=C1\Oc2ccc(F)cc2-c2ccc3c(c21)C(C)=CC(C)(C)N3	y
COc1ccc(F)cc1C(C)(C)CC(O)(Cc1ccccc1Cl)C(F)(F)F (stereo unspecified)	y
CCN(CC(O)(CNC(=O)c1cnn(-c2ccc(F)cc2)c1N)C(F)(F)F)C(=O)c1c(F)cccc1S(C)(=O)=O (racemic)	y
C[C@]12Cc3cnn(-c4ccc(F)cc4)c3C=C1CCC[C@@H]2[C@@H](O)c1ccc(Cl)s1	y
Cc1noc(=O)c2ccc(NC(=O)C(O)(Cc3ccccc3)CC(C)(C)c3cc(F)ccc3O)cc12 (stereo unspecified)	y
CN(C)CC(=O)N1CCC2(CC1)C(=O)Nc1cc(/C=C3\c4ccccc4COc4cc(F)ccc43)ccc12	n
CCn1c(CCCc2ccc(-c3ccc(NS(=O)(=O)c4ccccc4)cn3)cc2)nn(Cc2ccc(C(C)(C)C)cc2)c1=O	n
Cc1ccc(C(O)(c2ccc3c(cnn3-c3ccc(F)cc3)c2)C(F)(F)F)cc1 (stereo unspecified)	n
Cc1cc(C)c(S(=O)(=O)NC(C)Cc2c[nH]c3c(C)cccc23)c(C)c1 (stereo unspecified)	y
O=C1COc2ccc(C3=Nn4cnnc4SC3)cc2N1	n
